- System: velvetleaf
- Experiment description: Soil treatment test for upland field
- Assay type: in vivo, Abutilon theophrasti
- Set-up: key: 0: normal development; 1: Less damaged; 2: Slightly damaged; 3: Moderately damaged; 4: Severely damaged; 5: All killed
- Protocol conditions: 500 g/ha, glass house 25° C., 3 weeks
Quantity: Effects Velvetleaf

What is its Effects Velvetleaf for velvetleaf? Entry: CCC(Oc1cccc(C(F)(F)F)c1)c1nc2cc(F)ccc2o1 (centres unmarked)
3

Form field: Effects Velvetleaf recorded for CCCC(Oc1cccc(C(F)(F)F)c1)c1nc2cc(F)c(Cl)cc2o1 (centres unmarked) with velvetleaf (enter value)
3

What measured Effects Velvetleaf is associated with CCC(Oc1cccc(C(F)(F)F)c1)c1nc2cc(C(F)(F)F)ccc2o1 (centres unmarked) on velvetleaf?
3

Could you share what Effects Velvetleaf was measured for CCCC(Oc1ccc(F)c(C(F)(F)F)c1)c1nc2cc(C#N)c(C#N)cc2o1 (centres unmarked) , tested on velvetleaf?
5

Missing value: Effects Velvetleaf, velvetleaf, entry CCC(Oc1ccc(F)c(C(F)(F)F)c1)c1nc2cc(Br)ccc2o1 (centres unmarked) . Fill in?
1
